The values you see were collected from paper PMC10786891.

Target: T1, EsCas13d, nuclease-dead (Eubacterium siraeum, UniProt B0MS50, R295A;H300A;R849A;H854A)
T1 sequence: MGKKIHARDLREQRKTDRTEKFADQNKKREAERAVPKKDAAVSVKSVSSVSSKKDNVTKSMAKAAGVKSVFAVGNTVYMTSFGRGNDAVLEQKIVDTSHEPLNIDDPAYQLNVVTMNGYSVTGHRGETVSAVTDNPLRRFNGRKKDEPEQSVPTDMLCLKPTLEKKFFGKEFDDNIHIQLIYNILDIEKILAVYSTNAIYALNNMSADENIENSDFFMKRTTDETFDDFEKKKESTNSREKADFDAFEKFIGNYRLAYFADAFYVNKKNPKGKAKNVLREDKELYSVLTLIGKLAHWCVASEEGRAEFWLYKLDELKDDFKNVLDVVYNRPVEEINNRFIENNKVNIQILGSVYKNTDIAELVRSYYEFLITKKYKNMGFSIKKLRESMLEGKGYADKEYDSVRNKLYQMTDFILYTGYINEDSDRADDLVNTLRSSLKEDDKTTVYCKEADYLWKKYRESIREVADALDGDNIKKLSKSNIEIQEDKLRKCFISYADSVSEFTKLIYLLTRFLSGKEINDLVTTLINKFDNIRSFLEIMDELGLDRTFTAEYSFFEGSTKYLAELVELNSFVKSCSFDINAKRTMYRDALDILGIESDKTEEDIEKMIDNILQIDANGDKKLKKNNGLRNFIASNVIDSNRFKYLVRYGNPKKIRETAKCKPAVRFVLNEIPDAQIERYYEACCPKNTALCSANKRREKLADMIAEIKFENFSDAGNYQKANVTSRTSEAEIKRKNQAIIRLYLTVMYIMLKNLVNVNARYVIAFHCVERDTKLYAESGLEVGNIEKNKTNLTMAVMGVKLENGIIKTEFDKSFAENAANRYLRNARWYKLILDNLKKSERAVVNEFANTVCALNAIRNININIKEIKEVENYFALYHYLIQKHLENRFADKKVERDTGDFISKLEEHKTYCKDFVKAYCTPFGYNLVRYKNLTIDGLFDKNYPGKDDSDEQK
Assay: crRNA (strand 1, pre-loaded); Mg2+; 40 mM Tris-HCl pH 7.5, 150 mM NaCl, 6 mM MgCl2, 1 mM DTT, 0.1% Tween-20, 0.2 mg/ml BSA; 25 C; 10 min per concentration, then washed
Conditions: tags: His6-TwinStrep-SUMO cleaved; N-terminal SNAP kept (SNAP-Surface 488); label: 3' end held by stalled T7 RNA polymerase
Items are presented alongside their recorded pKd.
pKd is a log-scale quantity: -log10 of the concentration expressed in molar.

Reference set, count: 5
1. target 1 insC 3' of 13,insC 3' of 5 (mixed) RNA 1: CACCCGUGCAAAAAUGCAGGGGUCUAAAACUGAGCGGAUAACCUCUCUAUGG RNA 2: GGGAAUGGAUCCACAUCUACGAAUUCGUACCAUAGAGAGCGUUAUCCGCCUCACCGAGAUCGGAAGAGCACACGU ... 7.77
2. target 1 insC 3' of 17,insU 3' of 7 (mixed) RNA 1: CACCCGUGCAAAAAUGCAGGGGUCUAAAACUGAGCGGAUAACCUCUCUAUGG RNA 2: GGGAAUGGAUCCACAUCUACGAAUUCGUACCAUAGCAGAGGUUAUCUCGCUCACCGAGAUCGGAAGAGCACACGU ... 7.24
3. target 2 MT 5'PFS AUA 3'PFS CCA (mixed) RNA 1: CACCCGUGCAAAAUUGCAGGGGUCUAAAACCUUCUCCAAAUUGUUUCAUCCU RNA 2: GGGAAUGGAUCCACAUCUACGAAUUCAUAAGGAUGAAACAAUUUGGAGAAGCCAAGAUCGGAAGAGCACACGU ... 7.80
4. target 3 insU 3' of 6,insG 3' of 5 (mixed) RNA 1: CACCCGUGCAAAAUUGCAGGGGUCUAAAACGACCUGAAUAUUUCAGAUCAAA RNA 2: GGGAAUGGAUCCACAUCUACGAAUUCGUUUUUGAUCUGAAAUAUUCUAGGGUCUGCAGAUCGGAAGAGCACACGU ... 7.96
5. target 3 insC 3' of 9,insA 3' of 3 (mixed) RNA 1: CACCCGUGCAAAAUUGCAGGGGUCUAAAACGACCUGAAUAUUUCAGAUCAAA RNA 2: GGGAAUGGAUCCACAUCUACGAAUUCGUUUUUGAUCUGAAAUACUUCAGGAUCUGCAGAUCGGAAGAGCACACGU ... 7.08

stdin: Fill blank: measured pKd of the binder target 1 insG 3' of 6,insU 3' of 1 (mixed) RNA 1: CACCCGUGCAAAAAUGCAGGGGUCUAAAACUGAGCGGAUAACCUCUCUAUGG RNA 2: GGGAAUGGAUCCACAUCUACGAAUUCGUACCAUAGAGAGGUUAUCCGGCUCAUCCGAGAUCGGAAGAGCACACGU is ____.
stdout: 7.75

stdin: Look up pKd for this binder: target 1 insU 3' of 17,insG 3' of 1 (mixed) RNA 1: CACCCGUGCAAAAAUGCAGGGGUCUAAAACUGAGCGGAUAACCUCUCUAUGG RNA 2: GGGAAUGGAUCCACAUCUACGAAUUCGUACCAUAGUAGAGGUUAUCCGCUCAGCCGAGAUCGGAAGAGCACACGU
stdout: 7.75

stdin: What value of pKd has been recorded for this entry: target 1 insG 3' of 18,insG 3' of 8 (mixed) RNA 1: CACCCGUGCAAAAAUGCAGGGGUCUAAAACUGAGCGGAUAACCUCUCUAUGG RNA 2: GGGAAUGGAUCCACAUCUACGAAUUCGUACCAUAGGAGAGGUUAUGCCGCUCACCGAGAUCGGAAGAGCACACGU
stdout: 7.30

stdin: Give the measured pKd of target 1 insA 3' of 22,insG 3' of 22 (mixed) RNA 1: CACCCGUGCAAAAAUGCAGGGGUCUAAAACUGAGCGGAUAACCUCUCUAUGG RNA 2: GGGAAUGGAUCCACAUCUACGAAUUCGUACAGCAUAGAGAGGUUAUCCGCUCACCGAGAUCGGAAGAGCACACGU .
stdout: 7.82

stdin: Please report the recorded pKd for target 3 G3U,A5U (mixed) RNA 1: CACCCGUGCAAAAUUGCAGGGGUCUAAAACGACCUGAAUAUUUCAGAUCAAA RNA 2: GGGAAUGGAUCCACAUCUACGAAUUCGUUUUUGAUCUGAAAUAUUCUGUUCUGCAGAUCGGAAGAGCACACGU .
stdout: 7.49
